- Test system: TK-10 renal
- Experimental Details: NCI tumour cell line growth inhibition, 48 h
Endpoint Name: TGI

Previously resolved entries follow.
Compound	Result
Cc1ccc(/C=C(\C#N)n2nnc3cc(F)c(F)cc32)cc1	11.3 µM
COc1cc(/C=C\c2ccc(SC)cc2)cc(OC)c1OC	> 100 µM
COc1ccc(N=NN2CCCC2)cc1	> 100 µM

Consider the compound shown here: NS(=O)(=O)c1ccc(CNC(=S)NC(=O)Nc2ccc(Cl)c(Cl)c2)cc1 What is its recorded TGI?
> 100 µM

And then CCN(CC)P1(=S)Oc2ccc3ccccc3c2-c2c(ccc3ccccc23)O1 , what is it?
> 100 µM

Quick one: CC(=O)NC1C(OCC(=O)NC(C)C(=O)NC(CCC(=O)NCCCCCNc2ccc([N+](=O)[O-])c3[nH]c4ccccc4c(=O)c23)C(N)=O)C(O)C(CO)OC1(C)OCc1ccccc1 (centres undefined)
> 50 µM
